Ki for assorted compounds
Biological target: phosphorylated VEGF-R2Δ50 (FLVK-P) (Homo sapiens, UniProt P35968, DEL940-989/E990V)
Construct: VEGF-R2Δ50 contains residues 806-939 and 990-1171; made in house; host or cells: baculovirus/insect cells
Sequence (P35968 with tags, fused parts or gaps DEL940-989/E990V limits assumed): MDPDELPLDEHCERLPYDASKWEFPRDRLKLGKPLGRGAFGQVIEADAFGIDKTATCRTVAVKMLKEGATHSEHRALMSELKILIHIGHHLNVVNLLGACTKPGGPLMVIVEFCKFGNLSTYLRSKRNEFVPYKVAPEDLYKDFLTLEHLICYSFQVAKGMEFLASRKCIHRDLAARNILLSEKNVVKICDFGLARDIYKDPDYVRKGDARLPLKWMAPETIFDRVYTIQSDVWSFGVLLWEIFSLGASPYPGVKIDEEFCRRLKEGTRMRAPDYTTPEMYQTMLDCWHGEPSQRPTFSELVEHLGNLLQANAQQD
Test: VEGF-R2 coupled spectrophotometric (FLVK-P) assay
Assay type: biochemical
Conditions: Table 1; spectrophotometric assay
Where a name gives a salt, the structure may show the parent alone.

1) COc1cc(Nc2nc(N)c(-c3nc(-c4cccc(NC(=O)O[C@H](C)c5ccccc5)c4)cs3)s2)cc(OC)c1OC : 150 nM
2) CCc1cccc(C(=O)Nc2cccc(-c3csc(-c4sc(Nc5cc(OC)c(OC)c(OC)c5)nc4N)n3)c2)c1 : 1.4 nM
3) Nc1nc(Nc2ccc([N+](=O)[O-])cc2)sc1-c1nc(-c2cccc(NC(=O)c3ccccc3)c2)cs1 : 84 nM

// next item, Ki requested
input: Requested read-out Ki, target or system phosphorylated VEGF-R2Δ50 (FLVK-P) (Homo sapiens, UniProt P35968, DEL940-989/E990V), entry COc1cc(Nc2nc(N)c(-c3nc(-c4cccc(NC(=O)c5cc(C)cc(C)c5)c4)no3)s2)cc(OC)c1OC [D(56), trifluoroacetate salt]
output: 0.81 nM
